Reported pIC50 by item:
Target: HBV core protein (UniProt P03146)
Sequence (P03146 whole entry, looked up): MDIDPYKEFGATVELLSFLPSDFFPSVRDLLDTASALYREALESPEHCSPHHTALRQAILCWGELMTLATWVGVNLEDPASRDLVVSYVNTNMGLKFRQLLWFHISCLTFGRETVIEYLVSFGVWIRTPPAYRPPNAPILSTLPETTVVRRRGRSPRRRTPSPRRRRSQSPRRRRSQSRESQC
Format: biochemical
Conditions: read-out: Assembly Activity (IC50); BODIPY-FL labelled core protein, assembly started with NaCl, read after 6 min
pIC50: −log10 of the molar value.
assay metric: pIC50

* O=C(CC1CCOCC1)Nc1nc2c(s1)CN(C(=O)c1cc3ccccc3[nH]1)CC2 [Example 20] | > 5.30
* Nc1nc2c(s1)CN(C(=O)c1cc3ccc(F)cc3[nH]1)CC2 [Example 197] | > 5.30
* Cc1cc(C)c2[nH]c(C(=O)N3CCc4nc(N)sc4C3)cc2c1 [Example 137] | > 4.00
* O=C(c1cc2ccccc2[nH]1)N1CCc2nc(NCC3(O)CCC3)sc2C1 [Example 46] | > 5.30
* O=C(c1cc2ccccc2[nH]1)N1CCc2nc(NCC3CCNC3)sc2C1 (centres unmarked) [Example 389] | > 5.30

----------
This listing pairs molecules with measured pIC50.
Target: HBV core protein (UniProt P03146)
Type: biochemical
Details: read-out: Assembly Activity (IC50); BODIPY-FL labelled core protein, assembly started with NaCl, read after 6 min
pIC50: −log10 of the molar value.
assay metric: pIC50

* O=C(c1cc2c(Cl)cccc2[nH]1)N1CCc2nc(NCC3(O)CCC3)sc2C1 | > 5.30
* O=C(c1cc2c(C(F)F)ccc(F)c2[nH]1)N1CCc2nc(NCC3CCOC3)sc2C1 (centres unmarked) | > 5.30
* CN(C)c1nc2c(s1)CN(C(=O)c1cc3ccccc3[nH]1)CC2 | > 4.00
* CC(F)(F)c1cccc2[nH]c(C(=O)N3CCc4nc(NC(=O)C5CCOCC5)sc4C3)cc12 | > 5.30
* O=C(c1cc2ccccc2[nH]1)N1CCc2nc(NCC(F)(F)F)sc2C1 | > 4.00
* O=C(c1cc2c(F)cc(F)cc2[nH]1)N1CCc2nc(NC3(CO)CCC3)sc2C1 | 5.00 to 5.30
* CC(O)c1cccc2[nH]c(C(=O)N3CCc4nc(NCC5(CO)CC5)sc4C3)cc12 (centres unmarked) | > 4.00
* CCc1cccc2[nH]c(C(=O)N3CCc4nc(NCC5CCOC5)sc4C3)cc12 (centres unmarked) | > 5.30

----------
Molecular target: HBV core protein (UniProt P03146)
Format: biochemical
Conditions: read-out: Assembly Activity (IC50); BODIPY-FL labelled core protein, assembly started with NaCl, read after 6 min
pIC50: −log10 of the molar value.
pIC50: recorded values
assay metric: pIC50

* COc1nc2c(s1)CN(C(=O)c1cc3ccccc3[nH]1)CC2 | > 4.00
* O=C(c1cc2ccccc2[nH]1)N1CCc2nc(NC(CO)C3CCOC3)sc2C1 (centres unmarked) | > 5.30
* O=C(c1cc2c(F)cc(F)c(F)c2[nH]1)N1CCc2nc(NCC3CCOC3)sc2C1 (centres unmarked) | > 5.30
* Cc1nc2c(s1)CN(C(=O)c1cc3c(F)ccc(F)c3[nH]1)CC2 | 5.00 to 5.30
* O=C(c1cc2c(C(F)F)cccc2[nH]1)N1CCc2nc(NCC3CCOC3)sc2C1 (centres unmarked) | > 5.30
* CC(F)(F)c1cc(F)cc2[nH]c(C(=O)N3CCc4nc(NCC5(O)CCC5)sc4C3)cc12 | > 5.30
* O=C(c1cc2ccccc2[nH]1)N1CCc2nc(NCCn3cccn3)sc2C1 | > 5.30
* CCc1ccc(F)c2[nH]c(C(=O)N3CCc4nc(NCC5(CO)CC5)sc4C3)cc12 | > 5.30

----------
Target: HBV core protein (UniProt P03146)
Format: biochemical
Conditions: read-out: Assembly Activity (IC50); BODIPY-FL labelled core protein, assembly started with NaCl, read after 6 min
Description: Biochemical Capsid Assembly Assay The screening for assembly effector activity was done based on a fluorescence quenching assay published by Zlotnick et al. (2007). […] Immediately before labelling the core protein was reduced by adding freshly prepared DTT in a final concentration of 20 mM. […] In the dimeric state the fluorescence signal of the labelled core protein is high and is quenched during the assembly of the core dimers to high molecular capsid structures. […]
pIC50: −log10 of the molar value.
Reported pIC50 by item:
assay metric: pIC50

- CC(O)c1cc(F)cc2[nH]c(C(=O)N3CCc4nc(NCC5(CO)CC5)sc4C3)cc12 (stereo not drawn) [Example 249]: 5.00 to 5.30
- O=C(c1cc2c(Cl)cccc2[nH]1)N1CCc2nc(N[C@H]3CC[C@@H](O)CC3)sc2C1 [Example 302]: > 5.30
- COCC(C)Nc1nc2c(s1)CN(C(=O)c1cc3ccccc3[nH]1)CC2 (stereo not drawn) [Example 70]: > 5.30
- Cc1nc2c(s1)CN(C(=O)c1cc3c(C)cccc3[nH]1)CC2 [Example 184]: > 5.30
- O=C(c1cc2ccccc2[nH]1)N1CCc2nc(NCC3COC3)sc2C1 [Example 126]: 5.00 to 5.30
- CC(=O)NNc1nc2c(s1)CN(C(=O)c1cc3ccccc3[nH]1)CC2 [Example 58]: 5.00 to 5.30
- Nc1nc2c(s1)CN(C(=O)c1cc3c(Cl)ccc(F)c3[nH]1)CC2 [Example 85]: > 5.30
- Cc1ccc2[nH]c(C(=O)N3CCc4nc(N)sc4C3)cc2c1C [Example 136]: 5.00 to 5.30
- Cc1ccc2cc(C(=O)N3CCc4nc(N)sc4C3)[nH]c2c1 [Example 150]: > 5.30
- C=Cc1cccc2[nH]c(C(=O)N3CCc4nc(N)sc4C3)cc12 [Example 13]: 5.00 to 5.30
- Nc1nc2c(s1)CN(C(=O)c1cc3cccc(OC(F)F)c3[nH]1)CC2 [Example 173]: > 5.30
- Nc1nc2c(s1)CN(C(=O)c1cc3c([N+](=O)[O-])cccc3[nH]1)CC2 [Example 145]: > 5.30
- O=C(c1cc2c(Br)cccc2[nH]1)N1CCc2nc(NCC3(O)CCC3)sc2C1 [Example 364]: > 5.30
- Cc1cc(F)cc2[nH]c(C(=O)N3CCc4nc(N)sc4C3)cc12 [Example 169]: > 5.30
- Cc1nc2c(s1)CN(C(=O)c1cc3ccc(Cl)cc3[nH]1)CC2 [Example 162]: > 5.30
- O=C(c1cc2ccccc2[nH]1)N1CCc2nc(NC3CCOC3)sc2C1 (stereo not drawn) [Example 180]: > 5.30
- Cc1ccc(F)c2[nH]c(C(=O)N3CCc4nc(N)sc4C3)cc12 [Example 86]: > 5.30
- Nc1nc2c(s1)CN(C(=O)c1cc3ccc(Br)cc3[nH]1)CC2 [Example 92]: > 5.30

----------
Target: UniProt P03146
Format: biochemical
Conditions: read-out: Assembly Activity (IC50); BODIPY-FL labelled core protein, assembly started with NaCl, read after 6 min
pIC50: −log10 of the molar value.
assay metric: pIC50

• O=C(c1cc2c(Cl)cccc2[nH]1)N1CCc2nc(NC3(CO)CCC3)sc2C1 = > 5.30
• Nc1nc2c(s1)CN(C(=O)c1cc3c(Cl)cc(F)cc3[nH]1)CC2 = > 5.30
• CNC(=O)Nc1nc2c(s1)CN(C(=O)c1cc3ccccc3[nH]1)CC2 = > 5.30
• O=C(CNc1nc2c(s1)CN(C(=O)c1cc3ccccc3[nH]1)CC2)N1CCCCC1 = > 4.00

----------
Reported IC50 values for a set of compounds
Molecular target: UniProt P03146
Assay type: biochemical
Settings: read-out: Assembly Activity (IC50); BODIPY-FL labelled core protein, assembly started with NaCl, read after 6 min
assay metric: IC50

* CC(C)(C)OC(=O)N1CCOCC1CNc1nc2c(s1)CN(C(=O)c1cc3ccccc3[nH]1)CC2 (centres unmarked) | < 100 µM
* CC1CC1C(=O)Nc1nc2c(s1)CN(C(=O)c1cc3ccccc3[nH]1)CC2 (centres unmarked) | 5 to 10 µM
* O=C(c1cc2ccccc2[nH]1)N1CCc2nc(NCC(O)CO)sc2C1 (centres unmarked) | < 5 µM
* O=C(c1cc2ccccc2[nH]1)N1CCc2nc(CNCC3(CO)CC3)sc2C1 | < 100 µM
* CCc1cc(F)cc2[nH]c(C(=O)N3CCc4nc(NC[C@H]5CCOC5)sc4C3)cc12 | < 5 µM
* O=C(c1cc2c(Cl)cc(F)cc2[nH]1)N1CCc2nc(NC3(CO)CCC3)sc2C1 | < 5 µM
* Nc1nc2c(s1)CN(C(=O)c1cc3cc(F)cc(F)c3[nH]1)CC2 | < 5 µM
* CC(O)c1cc(F)cc2[nH]c(C(=O)N3CCc4nc(NCC5(O)CCC5)sc4C3)cc12 (centres unmarked) | < 100 µM

----------
Target: HBV core protein (UniProt P03146)
Assay type: biochemical
Details: read-out: Assembly Activity (IC50); BODIPY-FL labelled core protein, assembly started with NaCl, read after 6 min
pIC50: −log10 of the molar value.
assay metric: pIC50

* CC(C)(C)OC(=O)N1CCC(CNc2nc3c(s2)CN(C(=O)c2cc4ccccc4[nH]2)CC3)C1 (centres unmarked) | > 5.30
* O=C(c1cc2ccc(Br)cc2[nH]1)N1CCc2nc(NCC3(O)CCC3)sc2C1 | > 5.30
* Cc1ccc(F)c2[nH]c(C(=O)N3CCc4nc(NCC5CCOC5)sc4C3)cc12 (centres unmarked) | 5.00 to 5.30
* CCOC(=O)N1CCC(Nc2nc3c(s2)CN(C(=O)c2cc4ccccc4[nH]2)CC3)CC1 | 5.00 to 5.30
* CS(=O)(=O)NC(=O)Nc1nc2c(s1)CN(C(=O)c1cc3ccccc3[nH]1)CC2 | 5.00 to 5.30
* CC(O)CNc1nc2c(s1)CN(C(=O)c1cc3c(F)ccc(F)c3[nH]1)CC2 (centres unmarked) | > 5.30
* O=C(c1cc2ccccc2[nH]1)N1CCc2nc(NCC3CCCOC3)sc2C1 (centres unmarked) | > 5.30
* CC1Cc2nc(N)sc2CN1C(=O)c1cc2ccccc2[nH]1 (centres unmarked) | > 5.30

These measurements were taken from patent US11267825B2.
